Tested on: A549
assay.info: Cytotoxicity IC50 on A549 cells
Format: cell-based
settings: Homo sapiens
reported.endpoint: IC50

>>> print(df.to_string())
                                 smiles_str  reported_endpoint  result
0  Cc1ccc(CN(Cc2ccc(O)c3ncccc23)c2ccc(O)c3ncccc23)cc1               IC50  4.3 nM

* * *

Tested on: KB cells
assay.info: Cytotoxicity / cell viability on KB cells (colony-forming assay)
Type: cell-based, human
settings: first value of two experiments performed in parallel; read-out: Cytotoxicity on KB cells (IC50)
Exam item: assign condition met to entries whose IC50 is below 1000 nM and condition not met to entries at or above 1000 nM. Note that a value of exactly 1000 nM receives condition not met.

>>> df
                                   molecule        label_class
0  CC(C)(C)OC(=O)N(Cc1ccc(C(F)(F)F)cc1)Cc1ccc(O)c2ncccc12 [I37]  condition not met
1  CC(C)(C)OC(=O)N(Cc1ccccc1)Cc1ccc(O)c2ncccc12 [I38]      condition met
2  Oc1ccc(CNCc2ccc(C(F)(F)F)cc2)c2cccnc12 [I34]  condition not met
3  Oc1ccc(CNCc2cccc(C(F)(F)F)c2)c2cccnc12 [I35]      condition met
4  Oc1ccc(CN(Cc2ccccc2)Cc2ccc(O)c3ncccc23)c2cccnc12 [I12]      condition met

* * *

Tested on: HL60
assay.info: Cytotoxicity IC50 on HL60 cells
Assay type: cell-based
settings: Homo sapiens, HL-60
reported.endpoint: IC50 (µM)

>>> print(df.to_string())
                                   compound  study_target  reported_endpoint  numeric_readout
0  Cc1ccc(CN(Cc2ccc(O)c3ncccc23)c2ccc(O)c3ncccc23)cc1 [I14]          HL60               IC50           0.0327

* * *

Test system: KB cells
assay.info: Cytotoxicity / cell viability on KB cells (colony-forming assay)
Type: cell-based, human
settings: second value of two experiments performed in parallel; read-out: Cytotoxicity on KB cells (IC50)
reported.endpoint: IC50 (nM)

                                   molecule  reported_endpoint  numeric_readout
0  CC(C)(C)OC(=O)N(Cc1cccc(C(F)(F)F)c1)Cc1ccc(O)c2ncccc12 [I36]               IC50             1100
1  CC(C)(C)OC(=O)N(Cc1ccc(C(F)(F)F)cc1)Cc1ccc(O)c2ncccc12 [I37]               IC50             9000
2  Oc1ccc(CNCc2cccc(C(F)(F)F)c2)c2cccnc12 [I35]               IC50              220
3  CC(NCc1ccc(O)c2ncccc12)c1ccccc1 (stereo not shown) [I33]               IC50             1100
4  CC(C)(C)OC(=O)N(Cc1ccccc1)Cc1ccc(O)c2ncccc12 [I38]               IC50             1100
5  Oc1ccc(CNCc2ccc(C(F)(F)F)cc2)c2cccnc12 [I34]               IC50             9000
6  Oc1ccc(CN(Cc2ccccc2)Cc2ccc(O)c3ncccc23)c2cccnc12 [I12]               IC50                5

* * *

Test system: KB cells
assay.info: Cytotoxicity / cell viability on KB cells (colony-forming assay)
Format: cell-based, human
settings: Homo sapiens, KB, second value of two experiments performed in parallel; read-out: Cytotoxicity on KB cells (IC50)
Experimental: Cancerous KB cells are also considered, to determine the cell viability (or survival rate). This cell viability is determined according to the teaching of Nicholson K. M. et al., British Journal of Cancer, 1999, 81, 423-430. KB cells are human carcinoma cell lines, KB-3-1. […]
Exam item: assign Satisfied to entries whose IC50 is below 30 nM and Not satisfied to entries at or above 30 nM. Note that a value of exactly 30 nM receives Not satisfied.

>>> df
                                 smiles_str    label_class
0              Oc1ccc(CNCc2ccccc2)c2cccnc12  Not satisfied
1  Oc1ccc(N(Cc2cccc3ccccc23)c2ccc(O)c3ncccc23)c2cccnc12      Satisfied
2           Cc1ccc(CNCc2ccc(O)c3ncccc23)cc1  Not satisfied
3  Oc1ccc(CN2CCN(Cc3ccc(O)c4ncccc34)CC2)c2cccnc12  Not satisfied
4  CC(C)(C)OC(=O)N1CCCN(C(=O)OC(C)(C)C)CCN(Cc2ccc(O)c3ncccc23)CCCN(Cc2ccc(O)c3ncccc23)CC1  Not satisfied
5  Oc1ccc(CN2CCCNCCN(Cc3ccc(CN4CCCNCCNCCCNCC4)cc3)CCCNCC2)c2cccnc12  Not satisfied
6         Oc1ccc(NCc2cccc3ccccc23)c2cccnc12  Not satisfied
7  Cc1ccc(CN(Cc2ccc(O)c3ncccc23)c2ccc(O)c3ncccc23)cc1      Satisfied

* * *

Entries and their Cytotoxicity on KB cells (percentage inhibition of cell viability) values follow.
System: KB cells
assay.info: Cytotoxicity / cell viability on KB cells (colony-forming assay)
Type: cell-based, human
settings: at 1 μM; relative to reference without compound
reported.endpoint: Cytotoxicity on KB cells (percentage inhibition of cell viability)

>>> print(df.to_string())
                                   molecule  study_target       result
0  Oc1ccc(CN(Cc2ccccc2)Cc2ccc(O)c3ncccc23)c2cccnc12      KB cells  93% at 1 μM
1  CC(C)(C)OC(=O)N1CCCN(C(=O)OC(C)(C)C)CCN(C(=O)OC(C)(C)C)CCCNC(Cc2ccc(O)c3ncccc23)CC1 (stereo not drawn)      KB cells  15% at 1 μM
2  CC(C)(C)OC(=O)N1CCCN(C(=O)OC(C)(C)C)CCN(Cc2ccc(O)c3ncccc23)CCCN(Cc2ccc(O)c3ncccc23)CC1      KB cells  77% at 1 μM
3  Oc1ccc(CN2CCCNCCN(Cc3ccc(CN4CCCNCCNCCCNCC4)cc3)CCCNCC2)c2cccnc12      KB cells  93% at 1 μM
4  Oc1ccc(CN2CCN(Cc3ccc(O)c4ncccc34)CC2)c2cccnc12      KB cells  94% at 1 μM
5  CC(C)(C)OC(=O)N1CCCN(Cc2ccc(O)c3ncccc23)CCCN(C(=O)OC(C)(C)C)CCN(C(=O)OC(C)(C)C)CCC1      KB cells  28% at 1 μM
6        Oc1ccc(CN2CCCNCCNCCCNCC2)c2cccnc12      KB cells  27% at 1 μM
7              Oc1ccc(CNCc2ccccc2)c2cccnc12      KB cells  90% at 1 μM
8  Cc1ccc(CN(Cc2ccc(O)c3ncccc23)c2ccc(O)c3ncccc23)cc1      KB cells  90% at 1 μM
